Test system: KB-3-1
Assay: Cytotoxic Profiling of Annotated Libraries Using Quantitative High-Throughput Screening (AID 1296008); further: on the % scale 0 is the no-effect control and ±100 the full control effect; nearly all actives have a fitted effect of over 60% in size
Conditions: Five cell lines viability, CellTiter-Glo ATP luminescence, 48-72 h, active compounds read low
Records with an inconclusive call do not appear.
# key: entry, value: max response
measured.property: max response (%)

- O=C(Cn1ccnc1[N+](=O)[O-])NCCO: 0.623
- Cc1c(NC(C)C)c(=O)n(-c2ccccc2)n1C: 6.84
- CCCCC1(COC(=O)CCC(=O)O)C(=O)N(c2ccccc2)N(c2ccccc2)C1=O: 2.02
- CCCC(O)C(CC)CO (stereo unspecified): 9.23
- c1ccc2[nH]ccc2c1: -2.84
- Cn1cc(C(=O)[C@@H]2CCc3nc[nH]c3C2)c2ccccc21: -12.7
